- STUDY TARGET: T1, Recombinant Human TNF-α/TNFSF1A (human, UniProt P01375 77-233)
- T1 construct: also called hTNF-α; huTNFα
- T1 sequence (P01375 77-233 limits assumed): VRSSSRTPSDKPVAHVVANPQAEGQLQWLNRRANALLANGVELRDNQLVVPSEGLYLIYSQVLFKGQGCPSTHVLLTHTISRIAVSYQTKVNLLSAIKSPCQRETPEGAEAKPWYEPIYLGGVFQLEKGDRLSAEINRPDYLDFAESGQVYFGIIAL
- MEASUREMENT NOTES: SPR (BIACORE), antibody captured, TNFα in solution
kon values by entry
API: value field is a number in M⁻¹ s⁻¹; no unit string.

| BINDER | QUANTITY MEASURED | VALUE REPORTED |
| --- | --- | --- |
| AB355 (antibody, V domains shown, Full-length humanized antibody made in HEK 293-6E; also called hMAK199VH.1/hMAK199VL.2a) VH: EVQLVQSGSELKKPGASVKVSCKASGYTFTNYGMNWVRQAPGQGLEWMGWINTYTGEPTYADDFKGRFVFSLDTSVSTAYLQISSLKAEDTAVYYCARKFLTTVVVTDYAMDYWGQGTTVTVSS VL: DIVMTQSPAFLSVTPGEKVTITCRASQDISNYLNWYQQKPDQTVKLLIYYTSRLQSGVPSRFSGSGSGTDYTFTISSLEAEDAATYFCQQGNTLPPTFGQGTKLEIK | kon | 2.4e+06 |

// switching to the query binder
Entry AB356 (antibody, V domains shown, Full-length humanized antibody made in HEK 293-6E; also called hMAK199VH.1/hMAK199VL.2b) VH: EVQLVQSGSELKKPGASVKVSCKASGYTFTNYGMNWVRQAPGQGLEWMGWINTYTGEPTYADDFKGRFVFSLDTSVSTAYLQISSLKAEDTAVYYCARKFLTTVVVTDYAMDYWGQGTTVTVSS VL: DIVMTQSPAFLSVTPGEKVTITCRASQDISNYLNWYQQKPDQAPKLLIYYTSRLQSGVPSRFSGSGSGTDYTFTISSLEAEDAATYYCQQGNTLPPTFGQGTKLEIK ; kon = 1.3e+06
